Values from patent US9895352B2

Listing of entries alongside the reported IC50.
Test system: A4573
test summary: CCK-8 tetrazolium tumor cell growth inhibition, A4573
Format: cell-based
test conditions: Homo sapiens; A4573, ES, EWS-FLI1 Type 3

| compound | metric | result |
| --- | --- | --- |
| O=C(CC1(O)C(=O)Nc2c(Cl)ccc(Cl)c21)c1ccc(C2CC2)cc1 (single isomer, unassigned) | IC50 | < 5 µM |

Now consider a different compound.
Inquiry: Answer with the recorded IC50 for the compound listed here: COc1ccc(C(=O)CC2(O)C(=O)Nc3c(Cl)ccc(Cl)c32)cc1 (single isomer, unassigned)
Reply text: < 5 µM

* * *

test summary: Pharmacokinetics, continuous infusion study in rat
Type: in vivo
test conditions: plasma, iv, 96 mg/kg/day
metric: Vd (L/kg)
Field: numeric (L/kg). Do not append units.

Inquiry: Answer with the recorded Vd for the compound listed here: O=C(CC1(O)C(=O)Nc2c(Cl)ccc(Cl)c21)c1ccc(C2CC2)cc1 (single isomer, unassigned)
Reply text: 4.23

* * *

test summary: in vitro
test conditions: mouse, liver microsomes
metric: half-life (min)
Field: numeric (min). Do not append units.

| compound | value units | quantitative result |
| --- | --- | --- |
| O=C(CC1(O)C(=O)Nc2c(Cl)ccc(Cl)c21)c1ccc(N2CCCC2)cc1 (single isomer, unassigned) | min | 9.6 |

Inquiry: Answer with the recorded half-life for the compound listed here: O=C(CC1(O)C(=O)Nc2c(Cl)ccc(Cl)c21)c1ccc(C2CC2)c(F)c1 (single isomer, unassigned)
Reply text: 20.7

* * *

test summary: Pharmacokinetics, continuous infusion study in dog
Assay type: in vivo
test conditions: plasma, iv, 25 mg/kg/day
Method: Certain pharmacokinetics parameters were determined for certain compounds in vivo for intravenous and oral administration. Briefly, compounds were formulated and administered using IV bolus, continuous IV infusion or oral administration. Blood was collected at multiple time points over 24 hours and processed into plasma. Plasma was analyses for parent using LC/MS/MS. Certain parameters for certain compounds were obtained in duplicate.
metric: clearance (mL/min/kg)
Field: numeric (mL/min/kg). Do not append units.

Inquiry: Answer with the recorded clearance for the compound listed here: O=C(CC1(O)C(=O)Nc2c(Cl)ccc(Cl)c21)c1ccc(C2CC2)cc1 (single isomer, unassigned)
Reply text: 37.3

* * *

test summary: Metabolic stability, half-life and clearance in human liver microsomes
Format: in vitro ADME
metric: half-life (min)
Field: numeric (min). Do not append units.

Inquiry: Answer with the recorded half-life for the compound listed here: COc1ccc(C(=O)CC2(O)C(=O)Nc3c(Cl)ccc(Cl)c32)cc1 (racemic) [Cmpd 1]
Reply text: 10.3

* * *

test summary: Pharmacokinetics, continuous infusion study in rat
Type: in vivo
test conditions: plasma, iv, 96 mg/kg/day
metric: half-life (h)
Field: numeric (h). Do not append units.

Inquiry: Answer with the recorded half-life for the compound listed here: O=C(CC1(O)C(=O)Nc2c(Cl)ccc(Cl)c21)c1ccc(C2CC2)cc1 (single isomer, unassigned) [Cmpd 14]
Reply text: 1

* * *

test summary: Pharmacokinetics after IV and oral administration
Format: in vivo
test conditions: plasma, po, 100 mg/kg, 100 mg/kg po, labrasol/tetraglycol; BALB/c mice or Sprague Dawley rats
metric: half-life (h)
Field: numeric (h). Do not append units.

Inquiry: Answer with the recorded half-life for the compound listed here: O=C(CC1(O)C(=O)Nc2c(Cl)ccc(Cl)c21)c1ccc(C2CC2)cc1 (single isomer, unassigned)
Reply text: 7.71

* * *

test summary: Pharmacokinetics after IV and oral administration
Assay type: in vivo
test conditions: plasma, iv, 5 mg/kg, 5 mg/kg IV, captisol; BALB/c mice or Sprague Dawley rats; read-out: Tmax
metric: Tmax (min)
Field: numeric (min). Do not append units.

| compound | metric | quantitative result |
| --- | --- | --- |
| O=C(CC1(O)C(=O)Nc2c(Cl)ccc(Cl)c21)c1ccc(N2CCCC2)cc1 (single isomer, unassigned) | Tmax | 1.98 |
| COc1ccc(C(=O)CC2(O)C(=O)Nc3c(Cl)ccc(Cl)c32)cc1 (single isomer, unassigned) | Tmax | 1.98 |
| O=C(CC1(O)C(=O)Nc2c(Cl)ccc(Cl)c21)c1ccc(C2CC2)cc1 (single isomer, unassigned) | Tmax | 1.8 |

Inquiry: Answer with the recorded Tmax for the compound listed here: CNc1ccc(C(=O)CC2(O)C(=O)Nc3c(Cl)ccc(Cl)c32)cc1 (single isomer, unassigned)
Reply text: 1.98

* * *

Listing of entries alongside the reported half-life.
test summary: Pharmacokinetics after IV and oral administration
Type: in vivo
test conditions: plasma, po, 20 mg/kg, 20 mg/kg po, labrasol:tetraglycol:water 72:8:20; BALB/c mice or Sprague Dawley rats
Field: numeric (min). Do not append units.

Here is how some molecules turned out for half-life.
| molecule | value units | half-life |
| --- | --- | --- |
| COc1ccc(C(=O)CC2(O)C(=O)Nc3c(Cl)ccc(Cl)c32)cc1 (single isomer, unassigned) | min | 90 |
| CNc1ccc(C(=O)CC2(O)C(=O)Nc3c(Cl)ccc(Cl)c32)cc1 (single isomer, unassigned) | min | 168 |

Now consider a different molecule.
Inquiry: Answer with the recorded half-life for the molecule listed here: O=C(CC1(O)C(=O)Nc2c(Cl)ccc(Cl)c21)c1ccc(N2CCCC2)cc1 (single isomer, unassigned)
Reply text: 54

* * *

Listing of entries alongside the reported IC50.
System: SKES cells (Ewing Sarcoma cell line)
test summary: CCK-8 tetrazolium tumor cell growth inhibition, SKES
Assay type: cell-based
test conditions: Homo sapiens, SKES, ES, EWS-FLI1 Type 2

Inquiry: Answer with the recorded IC50 for the molecule listed here: O=C(CC1(O)C(=O)Nc2c(Cl)ccc(Cl)c21)c1ccc(N2CCOCC2)cc1 (racemic)
Reply text: > 5 µM

Inquiry: Answer with the recorded IC50 for the molecule listed here: O=C(CC1(O)C(=O)Nc2c(Cl)ccc(Cl)c21)c1ccccn1 (racemic)
Reply text: > 5 µM

Inquiry: Answer with the recorded IC50 for the molecule listed here: NS(=O)(=O)c1ccc(C(=O)CC2(O)C(=O)Nc3c(Cl)ccc(Cl)c32)cc1 (racemic)
Reply text: > 5 µM

Inquiry: Answer with the recorded IC50 for the molecule listed here: O=C(CC1(O)C(=O)Nc2c(Cl)ccc(Cl)c21)c1cccnc1 (racemic)
Reply text: > 5 µM

Inquiry: Answer with the recorded IC50 for the molecule listed here: O=C(CC1(O)C(=O)Nc2c(Cl)ccc(Cl)c21)c1ccc(F)c(F)c1 (racemic)
Reply text: > 5 µM

Inquiry: Answer with the recorded IC50 for the molecule listed here: O=C(CC1(O)C(=O)Nc2c(Cl)ccc(Cl)c21)c1ccc(-n2cccn2)cc1 (racemic)
Reply text: > 5 µM

* * *

test summary: in vitro
test conditions: human liver microsomes
metric: half-life (min)
Field: numeric (min). Do not append units.

Inquiry: Answer with the recorded half-life for the compound listed here: O=C(CC1(O)C(=O)Nc2c(Cl)ccc(Cl)c21)c1ccc(N2CCCC2)cc1 (single isomer, unassigned)
Reply text: 23

* * *

test summary: Pharmacokinetics, continuous infusion study in dog
Type: in vivo
test conditions: plasma, iv, 10 mg/kg/day
metric: half-life (h)
Field: numeric (h). Do not append units.

Inquiry: Answer with the recorded half-life for the molecule listed here: O=C(CC1(O)C(=O)Nc2c(Cl)ccc(Cl)c21)c1ccc(C2CC2)cc1 (single isomer, unassigned)
Reply text: 1.9

* * *

test summary: in vitro
test conditions: rat, liver microsomes
metric: half-life (min)
Field: numeric (min). Do not append units.

Here is how some compounds turned out for half-life.
| compound | metric | quantitative result |
| --- | --- | --- |
| O=C(CC1(O)C(=O)Nc2c(Cl)ccc(Cl)c21)c1ccc(C2CC2)cc1F (single isomer, unassigned) | half-life | 3 |
| O=C(CC1(O)C(=O)Nc2c(Cl)ccc(Cl)c21)c1ccc(C2CC2)c(F)c1 (single isomer, unassigned) | half-life | 3.5 |

Now consider a different compound.
Inquiry: Answer with the recorded half-life for the compound listed here: O=C(CC1(O)C(=O)Nc2c(Cl)ccc(Cl)c21)c1ccc(N2CCCC2)cc1 (single isomer, unassigned)
Reply text: 1.3

* * *

test summary: Pharmacokinetics after IV and oral administration
Format: in vivo
test conditions: plasma, po, 100 mg/kg, 100 mg/kg po, labrasol/tetraglycol; BALB/c mice or Sprague Dawley rats
metric: Cmax (ng/mL)
Field: numeric (ng/mL). Do not append units.

Inquiry: Answer with the recorded Cmax for the molecule listed here: O=C(CC1(O)C(=O)Nc2c(Cl)ccc(Cl)c21)c1ccc(C2CC2)cc1 (single isomer, unassigned)
Reply text: 33000

* * *

test conditions: dog liver microsome, no cofactor, 60 min
Listing of entries alongside the reported Remaining (NCF = 60 min).
Field: numeric (%). Do not append units.

| molecule | Remaining (NCF = 60 min) [%] |
| --- | --- |
| O=C(CC1(O)C(=O)Nc2c(Cl)ccc(Cl)c21)c1ccc(C2CC2)cc1 (single isomer, unassigned) [Cmpd 13] | 98.4 |
| COc1ccc(C(=O)CC2(O)C(=O)Nc3c(Cl)ccc(Cl)c32)cc1 (single isomer, unassigned) [Cmpd 3] | 100.1 |
| COc1ccc(C(=O)CC2(O)C(=O)Nc3c(Cl)ccc(Cl)c32)cc1 (single isomer, unassigned) [Cmpd 2] | 100.6 |
| C[C@]12CC[C@H]3[C@@H](CCC4=CC(=O)CC[C@@]43C)[C@@H]1CC[C@@H]2O [Testosterone, reference compound] | 91.0 |

Now consider a different molecule.
Inquiry: Answer with the recorded Remaining (NCF = 60 min) for the molecule listed here: O=C(CC1(O)C(=O)Nc2c(Cl)ccc(Cl)c21)c1ccc(C2CC2)cc1 (single isomer, unassigned) [Cmpd 14]
Reply text: 97.1
